Assay: activity coefficient (dimensionless); of the first substance listed, at infinite dilution; xn = mol fraction of the nth substance listed
Conditions: 318.15 K; Liquid; Chromatography; x1 = 0
assay.metric: activity coefficient

Problem: Please give the measured activity coefficient for this compound: CCOCC [diethyl ether] + CCCCn1cc[n+](C)c1.N#CN=C=[N-]
Result: 6.88

(a) CC(C)O [propan-2-ol] + CCCCn1cc[n+](C)c1.N#CN=C=[N-]
(b) C=CCCC [1-pentene] + CCCCn1cc[n+](C)c1.N#CN=C=[N-]
Problem: Param pair: a , b . Output: the one whose activity coefficient is numerically greater. Returns: label corresponding to the selected item.
Result: b

(P) CCC(C)(C)C [2,2-dimethylbutane] + CCCCn1cc[n+](C)c1.N#CN=C=[N-]
(Q) CCCC(=O)OC [methyl butanoate] + CCCCn1cc[n+](C)c1.N#CN=C=[N-]
Problem: Among P and Q , which shows a numerically higher activity coefficient result? Respond with the label that goes with your answer.
Result: P
(P: 53.6, Q: 3.46)
